Measured Solubility, water, value accompanies every entry in the list below.
# Protocol summary: Thermodynamic (shake-flask) solubility
# Format: physicochemical
# Measurement setup: deionized water, 24 h
Readout label: Solubility, water, value (mg/mL)

>>> result_number("C[C@H]1CO[C@@H]2Cn3cc(C(=O)NCc4ccc(F)cc4F)c(=O)c(O)c3C(=O)N12 [CAB, Cabotegravir, reference compound]")
0.008
>>> result_number("C[C@H]1CO[C@@H]2Cn3cc(C(=O)NCc4ccc(F)nc4F)c(=O)c([O-])c3C(=O)N12.[Na+]")
2.679
>>> result_number("C[C@H]1CO[C@@H]2Cn3cc(C(=O)NCc4ccc(F)nc4F)c(=O)c(O)c3C(=O)N12")
0.269
>>> result_number("C[C@H]1CO[C@@H]2Cn3cc(C(=O)NCc4ccc5nonc5c4)c(=O)c(O)c3C(=O)N12")
0.00285
